# assaySystem: Casein kinase I isoform epsilon (Homo sapiens); also: in the data inactive means no Kd found up to 30 µM
# Sequence (P49674 whole entry, canonical isoform): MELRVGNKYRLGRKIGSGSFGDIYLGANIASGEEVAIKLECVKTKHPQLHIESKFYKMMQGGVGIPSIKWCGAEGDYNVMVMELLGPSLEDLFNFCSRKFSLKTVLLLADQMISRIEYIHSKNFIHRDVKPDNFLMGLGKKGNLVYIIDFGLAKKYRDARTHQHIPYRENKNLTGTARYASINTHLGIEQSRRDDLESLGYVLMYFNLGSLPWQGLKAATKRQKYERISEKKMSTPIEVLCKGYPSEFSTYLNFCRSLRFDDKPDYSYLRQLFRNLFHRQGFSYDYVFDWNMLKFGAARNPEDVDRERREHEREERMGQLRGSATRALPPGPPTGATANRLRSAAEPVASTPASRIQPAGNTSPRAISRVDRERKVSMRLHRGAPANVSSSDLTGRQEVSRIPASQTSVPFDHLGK
Activity calls are given as the source filed them.
Just give me one of these, please: active, inactive

Previously resolved entries follow.
[[record]]
compound = "CCN1CCN(Cc2ccc(Nc3ncc(F)c(-c4cc(F)c5nc(C)n(C(C)C)c5c4)n3)nc2)CC1 [ABEMACICLIB]"
group = "inactive"

[[record]]
compound = "CNC(=O)c1cccc(-c2ccc3c(N4CCOC[C@@H]4C)nc(N4CCOC[C@@H]4C)nc3n2)c1 [VISTUSERTIB]"
group = "inactive"

[[record]]
compound = "COc1cccc2cc(-c3nc([C@H]4CC[C@H](C(=O)O)CC4)n4ncnc(N)c34)[nH]c12 [OSI-027]"
group = "inactive"

[[record]]
compound = "C=CC(=O)Nc1cc(Nc2nccc(-c3cn(C)c4ccccc34)n2)c(OC)cc1N(C)CCN(C)C [OSIMERTINIB]"
group = "inactive"

[[record]]
compound = "Cc1cc(Nc2nc(N[C@@H](C)c3ncc(F)cn3)ncc2Cl)n[nH]1 [AZD-1480]"
group = "inactive"


*Q* Short answer needed: outcome of this test for CCc1nc(C(N)=O)c(Nc2ccc(N3CCC(N4CCN(C)CC4)CC3)c(OC)c2)nc1NC1CCOCC1 [GILTERITINIB] ?
*A* inactive

*Q* Follow-up item: S=C(NCc1ccc2c(c1)OCO2)N1CCN(c2ncnc3c2oc2ccccc23)CC1 [AMUVATINIB]
*A* inactive

*Q* Follow-up item: COc1cc2ncnc3c2cc1OCCCCCN(C)Cc1ccc(Br)cc1N3 [JNJ-26483327]
*A* inactive

*Q* Follow-up item: COc1cccc(Nc2ncnn3ccc(CN4CC[C@@H](N)[C@H](O)C4)c23)c1 [BMS-690514]
*A* active

*Q* Follow-up item: O=C(Nc1ccc(OC(F)(F)F)cc1)c1sccc1NCc1ccnc2ccccc12 [OSI-930]
*A* inactive

*Q* Follow-up item: COc1ccc(-c2ccc3ncc4c(c3c2)n(-c2ccc(N3CCNCC3)c(C(F)(F)F)c2)c(=O)n4C)cn1 [BGT-226 FREE BASE]
*A* inactive

*Q* Follow-up item: CC(C)CC(=O)Nc1[nH]nc2c1CN(C(=O)C1CCN(C)CC1)C2(C)C [PHA-793887]
*A* inactive

*Q* Follow-up item: CCc1cc2c(cc1N1CCC(N3CCOCC3)CC1)C(C)(C)c1[nH]c3cc(C#N)ccc3c1C2=O [ALECTINIB]
*A* inactive

*Q* Follow-up item: NC(=O)c1ccc(N(C(N)=O)c2c(F)cccc2F)nc1-c1ccc(F)cc1F [VX-702]
*A* inactive

Measured values drawn from ChEMBL document CHEMBL3991601 for this set.
